MEASUREMENT SETUP: in sec-butanol, 333.15 K
ASSAY METRIC: solubility (mole fraction)
Keep the answer to the number alone.

For this compound ( COC(=O)/C=C(\C)N[C@@H](C(=O)[O-])c1ccc(O)cc1.[K+] ), measured solubility (mole fraction) is 0.000151
